- TARGET OR SYSTEM: CDK4/cyclin D3 (Homo sapiens)
- Construct: made in house; host or cells: insect cells (baculovirus co-infection)
- Sequence (P11802 whole entry): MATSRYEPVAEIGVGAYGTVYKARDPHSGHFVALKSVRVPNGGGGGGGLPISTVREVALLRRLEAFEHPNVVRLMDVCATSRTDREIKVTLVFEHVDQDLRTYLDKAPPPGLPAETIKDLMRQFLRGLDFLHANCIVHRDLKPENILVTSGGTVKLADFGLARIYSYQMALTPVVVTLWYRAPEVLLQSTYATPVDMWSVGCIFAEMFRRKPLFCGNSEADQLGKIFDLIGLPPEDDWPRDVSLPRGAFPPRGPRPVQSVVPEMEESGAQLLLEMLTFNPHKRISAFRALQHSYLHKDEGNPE
- Sequence (P30281 1-264 partner limits assumed): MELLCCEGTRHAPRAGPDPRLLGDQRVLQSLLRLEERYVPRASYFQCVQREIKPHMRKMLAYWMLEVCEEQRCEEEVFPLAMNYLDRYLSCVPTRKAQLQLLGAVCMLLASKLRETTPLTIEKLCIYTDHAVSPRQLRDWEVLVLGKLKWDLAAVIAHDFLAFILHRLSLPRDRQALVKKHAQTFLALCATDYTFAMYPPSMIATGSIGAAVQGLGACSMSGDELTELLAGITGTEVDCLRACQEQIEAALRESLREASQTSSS
- EXPERIMENTAL DETAILS: Inhibition of CDK4/Cyclin D retinoblastoma kinase activity;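 note: relative to DMSO control wells without compound minus no-enzyme background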
- Type: biochemical
- STATED CONDITIONS: test compound at 1 μM (head line shifted: 'mM' printed beside 'Structure'); read-out: % Inhib CDK4/D @ 1 μM
PROPERTY: inhibition at 1 µM (%)
# unit: % | format: bare number

Prompt line: Specify reported inhibition at 1 µM for the molecule shown: COc1cccc(C[S+]([O-])c2ccc(Nc3nc(N)c(C(=O)c4c(Cl)cccc4Cl)s3)cc2)c1 (stereo not drawn)
Response line: 66.8

Prompt line: Specify reported inhibition at 1 µM for the molecule shown: CC(CSc1ccc(Nc2nc(N)c(C(=O)c3c(Cl)cccc3Cl)s2)cc1)CN(C)C (stereo not drawn)
Response line: 43.6

Prompt line: Specify reported inhibition at 1 µM for the molecule shown: CC(CSc1cccc(Nc2nc(N)c(C(=O)c3c(Cl)cccc3Cl)s2)c1)CN(C)C (stereo not drawn)
Response line: 71.3

Prompt line: Specify reported inhibition at 1 µM for the molecule shown: CN1CCCC1CC[S+]([O-])c1cccc(Nc2nc(N)c(C(=O)c3c(Cl)cccc3Cl)s2)c1 (stereo not drawn)
Response line: 77.6

Prompt line: Specify reported inhibition at 1 µM for the molecule shown: `C=CCCSc1cccc(Nc2nc(N)c(C(=O)c3c(Cl)cccc3Cl)s2)c1`
Response line: 50.7

Prompt line: Specify reported inhibition at 1 µM for the molecule shown: Nc1nc(Nc2ccc([S+]([O-])Cc3ccncc3)cc2)sc1C(=O)c1c(Cl)cccc1Cl (stereo not drawn)
Response line: 68.5
